Data provenance: patent US9303042B2

method summary: In vitro metabolic stability in hepatic microsomes
Format: in vitro ADME, rat
test context: parent molecule after 30 min incubation with rat liver microsomes
reported metric: % Remaining

{"compound": "CC(F)(F)c1ccc(S(=O)(=O)c2nnn3c2nc(NCc2cccs2)c2sccc23)cc1 [Compound 3k]", "% Remaining": "96%"}
{"compound": "O=S(=O)(c1cccs1)c1nnn2c1nc(NCc1cccs1)c1sccc12 [Compound 3g]", "% Remaining": "<5%"}
{"compound": "CC(C)c1ccc(S(=O)(=O)c2nnn3c2nc(NCc2cccs2)c2sccc23)cc1 [Compound 3a]", "% Remaining": "<5%"}

Field: next compound
**Q:** // Input: CCc1ccc(S(=O)(=O)c2nnn3c2nc(NCc2cccs2)c2sccc23)cc1 [UTBinh-14] . Output its % Remaining only.
**A:** <5%
